Numbers sourced from paper PMC10406430.

Assay: Plasma pharmacokinetics of PAC-1 and TMZ (LC-MS/MS, non-compartmental analysis)
Format: in vivo, human
Conditions: human, plasma, po, 150 mg/m2, TMZ 150 mg/m^2 oral with PAC-1 625 mg/day; read-out: AUC0-∞, geometric mean (geometric CV%)
Observation type: AUC(0-inf) (ng·h/mL)

> print(dat)
                                   molecule  observation.type  observed.value
1  Cn1nnc2c(C(N)=O)ncn2c1=O [temozolomide, reference compound]        AUC(0-inf)           23900

###

Assay: Plasma pharmacokinetics of PAC-1 and TMZ (LC-MS/MS, non-compartmental analysis)
Format: in vivo, human
Details: human, plasma, po, 150 mg/m2, TMZ 150 mg/m^2 oral with PAC-1 500 mg/day; read-out: AUC0-∞, geometric mean (geometric CV%)
Observation type: AUC(0-inf) (ng·h/mL)

> print(dat)
                                   molecule  observed.value
1  Cn1nnc2c(C(N)=O)ncn2c1=O [temozolomide, reference compound]           23800
